# Tested on: Plasmodium berghei
# Assay notes: Screen against P. berghei liver stage (PbLuc), transformed with Luciferase, at 10uM
# Assay type: functional, HepG2
# Protocol conditions: tested at 10 uM
About 8,600 (12%) of roughly 69,000 compounds showed an effect of 50% or more. This excerpt belongs to a sample that is enriched for strong results.
Measured property: INHIBITION (%)
Give just the numeric value; % need not be written.

Sample O=c1c2ccc(C(F)(F)F)cc2ncn1CCCN1CCCCC1CO (stereo not drawn) ; INHIBITION observed: 56.6

Sample CCN1C(=O)CCC12CCN(S(=O)(=O)c1ccccc1)CC2 ; INHIBITION observed: -2.35

Sample O=C(c1cccc(S(=O)(=O)NC[C@@H]2C[C@H](F)CN2)c1)N1CCCCC1 ; INHIBITION observed: 46.1
